The reported numbers originate from the RNAGym collection of RNA variant scans (doi:10.7554/elife.90254).

B1: LINE1-full (parent)
chain: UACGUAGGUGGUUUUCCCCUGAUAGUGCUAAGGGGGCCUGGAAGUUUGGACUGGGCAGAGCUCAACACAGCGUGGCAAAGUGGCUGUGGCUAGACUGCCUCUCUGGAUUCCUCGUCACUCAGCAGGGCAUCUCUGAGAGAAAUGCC

- Variants of: B1
- method.summary: self-cleavage, relative activity (ratio to wild type); higher = more cleavage; in vitro, sequencing; the parent is a self-cleaving ribozyme
Provide the recorded self-cleavage for the entries that follow.
Respond using a number only.

## Task Please look up its self-cleavage: U14A A57C
## Result 0.04

## Task Please look up its self-cleavage: G80C A141G
## Result 1.04

## Task Please look up its self-cleavage: G54A A94G
## Result 0.15

## Task Please look up its self-cleavage: U81A U108A
## Result 2.18

## Task Please look up its self-cleavage: A42G A136G
## Result 1.53

## Task Please look up its self-cleavage: A31U G70A
## Result 0.26

## Task Please look up its self-cleavage: U100C G144C
## Result 1.95

## Task Please look up its self-cleavage: A141C U143A
## Result 1.79

## Task Please look up its self-cleavage: U46C A117G
## Result 1.78

## Task Please look up its self-cleavage: A124G U130C
## Result 1.58

## Task Please look up its self-cleavage: G8U U14C
## Result 2.04

## Task Please look up its self-cleavage: A30U A94C
## Result 0

## Task Please look up its self-cleavage: A6C U96A
## Result 0.17

## Task Please look up its self-cleavage: A117C A138U
## Result 2.44

## Task Please look up its self-cleavage: A67U A138G
## Result 0.13

## Task Please look up its self-cleavage: U134A A138G
## Result 1.63

## Task Please look up its self-cleavage: C56U A142G
## Result 0.11

## Task Please look up its self-cleavage: U23C U87C
## Result 0.25

## Task Please look up its self-cleavage: U109A U115C
## Result 1.43

## Task Please look up its self-cleavage: U9G A117U
## Result 1.07

## Task Please look up its self-cleavage: U87C G106U
## Result 0.26

## Task Please look up its self-cleavage: U26G A59G
## Result 0.41
